Target: unphosphorylated c-FMS kinase (uFMS, Seq. ID no. 1) (Homo sapiens, UniProt P07333)
Sequence (P07333 538-972): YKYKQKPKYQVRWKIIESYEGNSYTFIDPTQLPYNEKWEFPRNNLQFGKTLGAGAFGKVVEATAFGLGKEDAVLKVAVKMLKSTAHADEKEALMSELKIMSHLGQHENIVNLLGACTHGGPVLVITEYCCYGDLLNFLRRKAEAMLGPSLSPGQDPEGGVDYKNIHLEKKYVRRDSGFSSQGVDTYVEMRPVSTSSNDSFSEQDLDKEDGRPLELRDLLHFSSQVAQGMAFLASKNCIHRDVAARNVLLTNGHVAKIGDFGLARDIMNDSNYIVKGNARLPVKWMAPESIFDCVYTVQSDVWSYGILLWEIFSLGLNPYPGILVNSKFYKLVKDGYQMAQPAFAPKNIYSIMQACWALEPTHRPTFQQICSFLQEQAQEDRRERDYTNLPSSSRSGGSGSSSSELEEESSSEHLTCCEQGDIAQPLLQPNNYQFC
Assay: uFMS kinase assay (pyruvate kinase/lactate dehydrogenase coupled)
Conditions: ATP 500 μM
recorded.endpoint: IC50

Below, 2 compounds whose answers are already recorded.
> print(dat)
                                   compound  recorded.endpoint       obs.value
1  CC(=O)Nc1cc(Oc2ccc(NC(=O)NC(=O)C3CCOC3)nc2C)ccn1 (centres unmarked)               IC50  100 to 1000 nM
2  CCC(=O)Nc1cc(Oc2ccc(NC(=O)NC(=O)C(C)(C)OC)nc2)ccn1               IC50         < 10 nM

Data request: IC50 lookup needed for CNC(=O)c1cc(Oc2ccc(NC(=O)NC(=O)C(C)(C)C)nc2)ccn1 , thanks.
Data returned: < 10 nM

Data request: IC50 lookup needed for CC(=O)Nc1cc(Oc2ccc(NC(=O)NC(=O)C3CCCC3)nc2C)ccn1 , thanks.
Data returned: < 10 nM

Data request: IC50 lookup needed for CC(=O)Nc1cc(Oc2cnc(NC(=O)NC(=O)C(C)(C)C)cc2C)ccn1 , thanks.
Data returned: < 10 nM

Data request: IC50 lookup needed for CNC(=O)c1cc(Oc2ccc(NC(=O)NC(=O)C3(C(F)(F)F)CCC3)nc2)ccn1 , thanks.
Data returned: 10 to 100 nM

Data request: IC50 lookup needed for CC(=O)Nc1cc(Oc2ccc(NC(=O)NC(=O)C3CCCCC3)nc2)ccn1 , thanks.
Data returned: 10 to 100 nM

Data request: IC50 lookup needed for Cc1nc(NC(=O)NC(=O)C(C)(C)C)ccc1Oc1ccnc(NC(=O)N2CCOCC2)c1 , thanks.
Data returned: < 10 nM

###

Listing of entries alongside the reported IC50.
Molecular target: unphosphorylated PDGFRβ kinase (uPDGFRβ, Seq. ID No. 3) (Homo sapiens, UniProt P09619)
Sequence (P09619 557-1105): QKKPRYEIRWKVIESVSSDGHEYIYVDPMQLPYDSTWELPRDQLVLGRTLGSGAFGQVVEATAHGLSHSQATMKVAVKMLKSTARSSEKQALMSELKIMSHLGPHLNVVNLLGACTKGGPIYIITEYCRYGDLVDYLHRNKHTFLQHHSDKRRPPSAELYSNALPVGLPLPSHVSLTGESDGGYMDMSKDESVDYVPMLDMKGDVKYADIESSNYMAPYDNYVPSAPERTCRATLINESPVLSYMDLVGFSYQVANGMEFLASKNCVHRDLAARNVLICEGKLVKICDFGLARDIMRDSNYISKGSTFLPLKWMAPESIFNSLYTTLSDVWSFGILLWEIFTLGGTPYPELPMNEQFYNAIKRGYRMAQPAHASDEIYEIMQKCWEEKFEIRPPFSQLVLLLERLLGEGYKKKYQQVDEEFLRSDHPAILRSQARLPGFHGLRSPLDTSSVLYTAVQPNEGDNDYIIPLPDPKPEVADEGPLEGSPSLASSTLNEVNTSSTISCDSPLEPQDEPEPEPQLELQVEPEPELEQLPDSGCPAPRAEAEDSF
Assay: Unphosphorylated PDGFRβ kinase assay (pyruvate kinase/lactate dehydrogenase coupled)
Details: ATP 500 μM

> print(dat)
                      smiles.representation  recorded.endpoint  obs.value
1  CC(C)C(=O)NC(=O)Nc1ccc(Oc2ccnc(NC(=O)C3CCN(C)CC3)c2)cn1               IC50  > 1000 nM

Data request: IC50 lookup needed for CC(C)(C)C(=O)NC(=O)Nc1ccc(Oc2ccnc(NC(=O)N3CCCC3)c2)cn1 , thanks.
Data returned: 10 to 100 nM

Data request: IC50 lookup needed for CC(C)(C)C(=O)NC(=O)Nc1ccc(Oc2ccnc(NC(=O)N3CCOCC3)c2)cn1 , thanks.
Data returned: 100 to 1000 nM

Data request: IC50 lookup needed for CCN1CCN(C(=O)Nc2cc(Oc3ccc(NC(=O)NC(=O)C(C)(C)C)nc3)ccn2)CC1 , thanks.
Data returned: 100 to 1000 nM

Data request: IC50 lookup needed for CN(C)C(=O)Nc1cc(Oc2ccc(NC(=O)NC(=O)C3(C)CC3)nc2)ccn1 , thanks.
Data returned: 10 to 100 nM

Data request: IC50 lookup needed for CC(=O)Nc1cc(Oc2cnc(NC(=O)NC(=O)C(C)(C)C)cc2C)ccn1 , thanks.
Data returned: 10 to 100 nM

Data request: IC50 lookup needed for CNC(=O)c1cc(Oc2ccc(NC(=O)NC(=O)C(C)(C)OC)nc2)ccn1 , thanks.
Data returned: > 1000 nM

Data request: IC50 lookup needed for CNC(=O)c1cc(Oc2ccc(NC(=O)NC(=O)C3(C)CCOCC3)nc2)ccn1 , thanks.
Data returned: > 1000 nM

###

Target: unphosphorylated PDGFRβ kinase (uPDGFRβ, Seq. ID No. 3) (Homo sapiens, UniProt P09619)
Construct: purchased DeCode
Experiment: Unphosphorylated PDGFRβ kinase assay (pyruvate kinase/lactate dehydrogenase coupled)
Assay type: biochemical
Conditions: ATP 500 μM
recorded.endpoint: IC50

Below, 8 compounds whose answers are already recorded.
> print(dat)
                      smiles.representation                                       tgt       obs.value
1  O=C(NC(=O)C1CCOCC1)Nc1ccc(Oc2ccnc(NC(=O)C3CC3)c2)cn1  unphosphorylated PDGFRβ kinase (uPDGFRβ, Seq. ID No. 3) (Homo sapiens, UniProt P09619)         < 10 nM
2  CC(C)C(=O)Nc1cc(Oc2ccc(NC(=O)NC(=O)C(C)(C)C)nc2)ccn1  unphosphorylated PDGFRβ kinase (uPDGFRβ, Seq. ID No. 3) (Homo sapiens, UniProt P09619)  100 to 1000 nM
3  CC(C)(C)C(=O)NC(=O)Nc1ccc(Oc2ccnc(NC(=O)C3CC3)c2)cn1  unphosphorylated PDGFRβ kinase (uPDGFRβ, Seq. ID No. 3) (Homo sapiens, UniProt P09619)  100 to 1000 nM
4  COCCNC(=O)Nc1cc(Oc2ccc(NC(=O)NC(=O)C(C)(C)C)nc2)ccn1  unphosphorylated PDGFRβ kinase (uPDGFRβ, Seq. ID No. 3) (Homo sapiens, UniProt P09619)       > 1000 nM
5  CC(=O)Nc1cc(Oc2ccc(NC(=O)NC(=O)C3(C(F)(F)F)CCC3)nc2)ccn1  unphosphorylated PDGFRβ kinase (uPDGFRβ, Seq. ID No. 3) (Homo sapiens, UniProt P09619)  100 to 1000 nM
6  CN(C)C1CN(C(=O)Nc2cc(Oc3ccc(NC(=O)NC(=O)C(C)(C)C)nc3)ccn2)C1  unphosphorylated PDGFRβ kinase (uPDGFRβ, Seq. ID No. 3) (Homo sapiens, UniProt P09619)    10 to 100 nM
7  CN(C)[C@H]1CCN(C(=O)Nc2cc(Oc3ccc(NC(=O)NC(=O)C(C)(C)C)nc3)ccn2)C1  unphosphorylated PDGFRβ kinase (uPDGFRβ, Seq. ID No. 3) (Homo sapiens, UniProt P09619)    10 to 100 nM
8  Cc1nc(NC(=O)NC(=O)C(C)(C)C)ccc1Oc1ccnc(NC(=O)C(C)C)c1  unphosphorylated PDGFRβ kinase (uPDGFRβ, Seq. ID No. 3) (Homo sapiens, UniProt P09619)  100 to 1000 nM

Data request: GET /values?readout=IC50&system=unphosphorylated PDGFRβ kinase (uPDGFRβ, Seq. ID No. 3) (Homo sapiens, UniProt P09619)&item= CN1CCC(C(=O)Nc2cc(Oc3ccc(NC(=O)NC(=O)C(C)(C)C)nc3)ccn2)CC1
Data returned: > 1000 nM

Data request: GET /values?readout=IC50&system=unphosphorylated PDGFRβ kinase (uPDGFRβ, Seq. ID No. 3) (Homo sapiens, UniProt P09619)&item= Cc1nc(NC(=O)NC(=O)C(C)(C)C)ccc1Oc1ccnc(NC(=O)N(C)C)c1
Data returned: > 1000 nM

Data request: GET /values?readout=IC50&system=unphosphorylated PDGFRβ kinase (uPDGFRβ, Seq. ID No. 3) (Homo sapiens, UniProt P09619)&item= CN(C)C(=O)Nc1cc(Oc2ccc(NC(=O)NC(=O)C(C)(C)C)nc2)ccn1
Data returned: 100 to 1000 nM

Data request: GET /values?readout=IC50&system=unphosphorylated PDGFRβ kinase (uPDGFRβ, Seq. ID No. 3) (Homo sapiens, UniProt P09619)&item= CCC(=O)Nc1cc(Oc2ccc(NC(=O)NC(=O)C(C)(C)C)nc2C)ccn1
Data returned: 100 to 1000 nM

Data request: GET /values?readout=IC50&system=unphosphorylated PDGFRβ kinase (uPDGFRβ, Seq. ID No. 3) (Homo sapiens, UniProt P09619)&item= CCC(=O)NC(=O)Nc1ccc(Oc2ccnc(NC(C)=O)c2)cn1
Data returned: > 1000 nM

Data request: GET /values?readout=IC50&system=unphosphorylated PDGFRβ kinase (uPDGFRβ, Seq. ID No. 3) (Homo sapiens, UniProt P09619)&item= CC(=O)Nc1cc(Oc2ccc(NC(=O)NC(=O)C3(C)CC3)nc2)ccn1
Data returned: 100 to 1000 nM

Data request: GET /values?readout=IC50&system=unphosphorylated PDGFRβ kinase (uPDGFRβ, Seq. ID No. 3) (Homo sapiens, UniProt P09619)&item= COC(C)(C)C(=O)NC(=O)Nc1ccc(Oc2ccnc(NC(C)=O)c2)c(C)n1
Data returned: > 1000 nM

Data request: GET /values?readout=IC50&system=unphosphorylated PDGFRβ kinase (uPDGFRβ, Seq. ID No. 3) (Homo sapiens, UniProt P09619)&item= Cc1nc(NC(=O)NC(=O)C(C)(C)C)ccc1Oc1ccnc(NC(=O)C2CC2)c1
Data returned: 10 to 100 nM

Data request: GET /values?readout=IC50&system=unphosphorylated PDGFRβ kinase (uPDGFRβ, Seq. ID No. 3) (Homo sapiens, UniProt P09619)&item= CC(=O)Nc1cc(Oc2ccc(NC(=O)NC(=O)C3CCOCC3)nc2)ccn1
Data returned: 100 to 1000 nM
